The values you see were collected from patent US20170298096A1.

Target: T1, His-tagged P3028 (human, also: His-tag, terminus and sequence not given here)
T1 construct: in solution at 0.5 ug/mL over the peptide cards; found with anti-His-tag antibody and rabbit anti-mouse peroxidase (rampo); also called PGE73; not shown: His-tag
T1 peptide: VFDEFKPLVEEPQNLIK
Assay: PEPSCAN chip ELISA, His-P3028 in solution;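 note: score is the raw OD at 405 nm from peroxidase colour with ABTS, imaged by CCD camera before and after staining, with wells showing air bubbles set to zero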
No end group written: not given here.
A collection of binders and their measured RAMPO Score

>  <binder>
KKLDTFFVKNSLFTER [SEQ ID NO 337]

>  <RAMPO Score [rampo score]>
365

$$$$
>  <binder>
KKLDTFFVKLSQFTER [SEQ ID NO 355]

>  <RAMPO Score [rampo score]>
651

$$$$
>  <binder>
KKLDTFFVKLSLFLER [SEQ ID NO 380]

>  <RAMPO Score [rampo score]>
360

$$$$
